biological target: Recombinant human protein tyrosine phosphatase 1B (Homo sapiens, UniProt P18031); construct: purchased UBI; assay: Protein tyrosine phosphatase 1B inhibitory activity (malachite green, phosphorylated insulin receptor peptide substrate); assay type: biochemical; conditions: recombinant human PTP1B, 60 min room temperature, absorbance 650 nm
endpoint-name: IC50 (µM)
Quick note: give the figure in µM, leave out the unit.

Sample answers from the record:
>>> df
                                   molecule  endpoint_name  observed
0  CN(Cc1ccc([C@H]2CC[C@H](C)CC2)cc1)c1ccc(-c2csc(COC(=O)N(CC(=O)O)Cc3ccccc3)n2)cc1 [Example 3-108]           IC50      0.16
1  CCC(CC)c1ccc(N(Cc2ccc(-c3csc(COc4cncc(C(=O)O)c4)n3)cc2)C(C)C)cc1 [Example 1-1]           IC50      0.28
2  CC(C)Cc1ccc(CN(C)c2ccc(-c3csc(CN(CC(=O)O)C(=O)Cc4ccc(C(C)C)cc4)n3)cc2)cc1 [Example 3-58]           IC50      0.39

Continue with the molecule presented below.
Q: Given the entry Cl.O=C(O)C1(c2ccccc2)CCN(Cc2ccc(-c3cn(Cc4ccc(C5CCCCC5)cc4)c4ccccc34)s2)CC1 [Example 4-62] , report its measured IC50.
Ans: 0.45

----------
Biological target: Recombinant human protein tyrosine phosphatase 1B (Homo sapiens, UniProt P18031)
Construct: purchased UBI
Sequence (P18031 1-435): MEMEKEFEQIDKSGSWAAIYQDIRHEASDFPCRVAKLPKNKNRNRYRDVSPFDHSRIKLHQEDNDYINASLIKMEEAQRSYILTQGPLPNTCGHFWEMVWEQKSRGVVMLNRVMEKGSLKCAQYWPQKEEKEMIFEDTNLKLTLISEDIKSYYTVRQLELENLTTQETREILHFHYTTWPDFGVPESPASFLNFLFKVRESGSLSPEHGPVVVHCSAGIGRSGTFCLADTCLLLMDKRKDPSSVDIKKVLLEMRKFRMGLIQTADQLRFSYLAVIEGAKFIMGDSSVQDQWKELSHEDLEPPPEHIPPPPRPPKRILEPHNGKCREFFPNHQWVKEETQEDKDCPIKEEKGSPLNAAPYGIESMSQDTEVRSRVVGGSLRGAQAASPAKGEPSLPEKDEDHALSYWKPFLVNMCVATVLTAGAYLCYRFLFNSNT
Test: Protein tyrosine phosphatase 1B inhibitory activity (malachite green, phosphorylated insulin receptor peptide substrate)
Type: biochemical
Conditions: recombinant human PTP1B, 60 min room temperature, absorbance 650 nm
Procedure: Preparation of Assay Buffer: A 50 mM Tris-HCl buffer (pH 7.5), 50 mM NaCl and 3 mM dithiothreitol (DTT) were prepared. […] The sample (10 μl) prepared as mentioned above and a substrate (25 μl) were successively added to a 96 well plate, and the enzyme (25 μl) prepared as mentioned above was added and mixed. […] An absorbance at 650 nm was measured on a plate reader based on which the protein tyrosine phosphatase 1B inhibitory activity of the test compound was evaluated.
Threshold check on IC50: strictly below 0.2 µM is Satisfied; on or above 0.2 µM is Not satisfied.

>>> print(df.to_string())
                        structure_as_smiles  group_label
0  CCCC(CCC)c1ccc(N(C)Cc2ccc(-c3csc(N(C)Cc4ccc(C(=O)O)cc4)n3)cc2)cc1    Satisfied
1  CC(C)CCN(CC(=O)O)Cc1nc(-c2ccc(N(C)Cc3ccc([C@H]4CC[C@H](C)CC4)cc3)cc2)cs1    Satisfied
2  C[C@H]1CC[C@H](c2ccc(COc3ccc(-c4ccc(CN5CCN(c6ccc(C(=O)O)cc6)CC5)s4)cc3)cc2)CC1    Satisfied

Q: hey, is IC50 for CCC(CC)c1ccc(N(Cc2ccc(-c3csc(CN(CC(=O)O)CC(=O)Nc4ccc(C(C)C)cc4)n3)cc2)C(C)C)cc1 lower than 0.2 µM or not?
Ans: Satisfied

Q: Please answer likewise for CCCC(CCC)c1ccc(OCc2ccc(-c3csc(Cn4nc(C(=O)O)cc4C(C)(C)C)n3)cc2)cc1
Ans: Not satisfied
